target: UniProt P34972; assay: [35S]GTPγS binding in human CB2 receptor-expressing CHO cell membranes; type: biochemical; parameters: expressed in transfected cells; conditions: read-out: EC50 in the [35S]GTPγS assay
metric-name: EC50 (nM)
Note: unit nM is implicit; provide only the numeric part.

Give me measured EC50, please, for this compound: CCCC(C)(C)c1ccc2c(c1)OC(C)(C)C1CC=C(C)CC21 (stereo not shown) [Compound 3, 3-(1′,1′-Dimethylbutyl)-1-deoxy-Δ^8-THC, reference compound]
4

###

molecular target: CB2 receptor (Homo sapiens, UniProt P34972); assay: CB2 assay: displacement of [3H]CP-55,940 from cloned human CB2 receptor preparation (transfected HEK 293 cells); assay type: binding; set-up: expressed in transfected cells; conditions: Table 3; mean ± SEM; 3-(alkoxy-1-naphthoyl)indoles; the same values as Ki in nM; read-out: CB2 (receptor affinity)
Sequence (P34972 whole entry): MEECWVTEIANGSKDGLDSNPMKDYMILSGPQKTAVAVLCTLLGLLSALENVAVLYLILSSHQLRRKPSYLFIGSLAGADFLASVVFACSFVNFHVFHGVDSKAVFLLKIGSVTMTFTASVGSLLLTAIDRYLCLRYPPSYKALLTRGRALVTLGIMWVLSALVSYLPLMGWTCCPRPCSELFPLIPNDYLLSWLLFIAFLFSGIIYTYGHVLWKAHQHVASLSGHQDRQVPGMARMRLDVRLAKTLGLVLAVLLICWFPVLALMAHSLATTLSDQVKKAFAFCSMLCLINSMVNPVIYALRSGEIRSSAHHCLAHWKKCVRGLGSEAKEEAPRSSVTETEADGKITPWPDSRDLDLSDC
metric-name: Ki (nM)
Numbers only; they are read as nM.

Report measured Ki on CB2 receptor (Homo sapiens, UniProt P34972); entry: CCCn1c(C)c(C(=O)c2cccc3ccc(OC)cc23)c2ccccc21 [JWH-160]
441

State the measured Ki (CB2 receptor (Homo sapiens, UniProt P34972)) of CCCCCn1cc(C(=O)c2c(OC)ccc3ccccc23)c2ccccc21 [JWH-267, 1-Pentyl-3-(2-methoxy-1-naphthoyl)indole]
7.2

###

biological target: CB2 receptor (Homo sapiens, UniProt P34972); test: CB2 assay: displacement of [3H]CP-55,940 from cloned human CB2 receptor preparation (transfected HEK 293 cells); type: binding; set-up: expressed in transfected cells; conditions: cloned human CB2; read-out: Ki at CB2 receptor
Record form. Attribute: pKi. Fill in for each entry.
Field pKi (float): negative decimal logarithm of the concentration in molar.

Look up pKi of CC(C)(C)c1ccc2c(c1)OC(C)(C)C1CC=C(CO)CC21 (stereo not drawn) [Compound 9a] and report it.
7.74

Look up and state reported pKi for CCCCCn1cc(C(=O)c2ccc(OCC)c3ccccc23)c2ccccc21 [JWH-258, 1-Pentyl-3-(4-ethoxy-1-naphthoyl)indole]
7.98

Tell me pKi reported for CCCn1cc(C(=O)c2cccc3cc(OC)ccc23)c2ccccc21 [JWH-163, 1-Propyl-3-(6-methoxy-1-naphthoyl)indole]
6.86

Supply reported pKi belonging to this molecule: CCCCCn1c(C)c(C(=O)c2ccc(OCC)c3ccccc23)c2ccccc21 [JWH-260]
7.60

Please indicate pKi recorded for CCCCCn1cc(C(=O)c2cccc3cc(OC)ccc23)c2ccccc21 [JWH-166, 1-Pentyl-3-(6-methoxy-1-naphthoyl)indole]
8.72

Let me know recorded pKi for CCCCCn1c(C)c(C(=O)c2c(OC)ccc3ccccc23)c2ccccc21 [JWH-268] , thanks.
7.40

Name the recorded pKi of the item CCCn1cc(C(=O)c2cccc3ccc(CC)cc23)c2ccccc21 [JWH-235, 1-Propyl-3-(7-ethyl-1-naphthoyl)indole] in your answer.
6.91

Give the measured pKi for CCCn1cc(C(=O)c2ccc(C)c3ccccc23)c2ccccc21 [JWH-120, 1-Propyl-3-(4-methyl-1-naphthoyl)indole]
8.21

Report pKi, nothing else, for this molecule: CCCCCn1cc(C(=O)c2ccc(CCCC)c3ccccc23)c2ccccc21 [JWH-240, 1-Pentyl-3-(4-butyl-1-naphthoyl)indole]
8.14

Could you please provide reported pKi for CCCn1c(C)c(C(=O)c2ccc(OCC)c3ccccc23)c2ccccc21 [JWH-261] ? Thanks!
6.66

Provide measured pKi value, entry: CCCn1c(C)c(C(=O)c2ccc(CC)c3ccccc23)c2ccccc21 [JWH-211]
7.92

Return reported pKi. Input molecule: CCCCCn1c(C)c(C(=O)c2ccc(CCC)c3ccccc23)c2ccccc21 [JWH-181]
9.21
